Assay: Partition coefficient (logD7.4)
Details: octanol/water, pH 7.4
Hi there, I'd appreciate the recorded logD for every entry that follows.
When you answer, write just the number.

Lookup: Identify the reported logD for the following entry. CC(CN1c2ccccc2Sc2ccccc21)N(C)C (configuration not stated)
Found: 2.849

Lookup: Identify the reported logD for the following entry. CN(C)CCC=C1c2ccccc2COc2ccccc21 [DOXEPIN]
Found: 2.22

Lookup: Identify the reported logD for the following entry. Clc1ccccc1
Found: 2.87

Lookup: Identify the reported logD for the following entry. O=C(NC1CCN(CCc2c[nH]c3ccccc23)CC1)c1ccccc1
Found: 2.313

Lookup: Identify the reported logD for the following entry. O=[N+]([O-])c1ccccc1
Found: 1.88

Lookup: Identify the reported logD for the following entry. COc1ccccc1
Found: 2.09

Lookup: Identify the reported logD for the following entry. CN1CCN(C2=Nc3cc(Cl)ccc3Nc3ccccc32)CC1
Found: 2.99

Lookup: Identify the reported logD for the following entry. CCCCOc1cc(C(=O)NCCN(CC)CC)c2ccccc2n1
Found: 2.91

Lookup: Identify the reported logD for the following entry. CCN(CC)CCOc1ccc2c(c1)C(=O)c1cc(OCCN(CC)CC)ccc1-2
Found: 1.47

Lookup: Identify the reported logD for the following entry. CN1CCCCC1CCN1c2ccccc2Sc2ccc([S+](C)[O-])cc21 (configuration not stated)
Found: 1.8

Lookup: Identify the reported logD for the following entry. CNCCC=C1c2ccccc2CCc2ccccc21
Found: 1.98

Lookup: Identify the reported logD for the following entry. c1ccc2nc3ccccc3cc2c1
Found: 3.29
